Target: AHR (Homo sapiens, UniProt P35869)
Sequence (P35869 11-848): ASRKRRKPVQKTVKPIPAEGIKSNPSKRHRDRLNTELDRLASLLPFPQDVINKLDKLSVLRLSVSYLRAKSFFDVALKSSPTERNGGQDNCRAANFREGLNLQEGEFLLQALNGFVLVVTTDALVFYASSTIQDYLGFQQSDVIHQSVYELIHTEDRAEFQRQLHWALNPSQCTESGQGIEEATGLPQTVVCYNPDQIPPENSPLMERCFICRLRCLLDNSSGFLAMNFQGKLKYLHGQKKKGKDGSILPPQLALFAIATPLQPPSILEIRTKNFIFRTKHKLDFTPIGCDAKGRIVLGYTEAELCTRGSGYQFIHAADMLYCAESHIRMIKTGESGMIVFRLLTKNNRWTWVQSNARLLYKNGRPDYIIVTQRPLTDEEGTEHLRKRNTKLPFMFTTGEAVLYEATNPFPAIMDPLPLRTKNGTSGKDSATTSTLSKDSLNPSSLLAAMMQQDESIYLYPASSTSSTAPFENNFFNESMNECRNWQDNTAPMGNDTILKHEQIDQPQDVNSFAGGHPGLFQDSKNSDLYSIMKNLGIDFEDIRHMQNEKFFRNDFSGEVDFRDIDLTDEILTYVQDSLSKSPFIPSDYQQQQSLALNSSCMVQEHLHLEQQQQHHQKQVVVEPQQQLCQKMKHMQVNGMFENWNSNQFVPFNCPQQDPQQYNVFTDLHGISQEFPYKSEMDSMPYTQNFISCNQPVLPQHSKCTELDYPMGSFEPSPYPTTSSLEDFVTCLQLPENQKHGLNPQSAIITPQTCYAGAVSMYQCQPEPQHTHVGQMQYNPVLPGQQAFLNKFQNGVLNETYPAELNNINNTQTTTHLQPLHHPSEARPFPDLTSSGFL
Assay: In vitro assay 1: antagonism in human cell line (transactivation assay, kynurenic acid prestimulated)
Details: Assay 1: AHR-luc Hum Antagonism IC50 [M], 150 μM kynurenic acid, 20 hours, firefly luciferase
Result Type: IC50 (M)
Unit M implied. Number only.

Example entries begin here.
COCC(O)CNC(=O)c1cc(-c2ccc(C)cc2)nn(-c2cccc(F)c2)c1=O (single isomer, unassigned; enantiomer 1) [Example 17]; 2.11e-07
O=C(NC(CO)C1CCOC1)c1cc(-c2ccc(OC(F)(F)F)cc2)nn(-c2cccc(F)c2)c1=O (single isomer, unassigned) [Example 176]; 1.71e-07

Now let's try a different one.
*Q* Lookup: IC50 / AHR (Homo sapiens, UniProt P35869) / O=C(NCC1(O)CCCC1)c1cc(-c2ccc(Cl)cc2)nn(-c2cccc(F)c2)c1=O [Example 326]
*A* 6.47e-08
